Tested on: PPARg homodimer (NR concentration 180 nM)
Assay: PBM binding z-score (relative to random genomic background probes); higher = stronger binding; sequences stand for … in GC…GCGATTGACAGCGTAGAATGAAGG
Categorized via PBM binding z-score: b0: < 1; b1: ≥ 1 and < 2; b2: ≥ 2

These recorded examples may help you get a feel for the data.
// bin(item) where item = ACTAGCAGGCCAAGAGTCACTCAAGATTAGTCCG
b0

Band assignment needed for TCTTGTTGATCAAAGGTTAAGAAAGCCGAAGCCT please.
b1

Textbook exercise: identify the category of the sequence given here, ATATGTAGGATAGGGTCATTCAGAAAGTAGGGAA , according to its measured value.
b2

Entry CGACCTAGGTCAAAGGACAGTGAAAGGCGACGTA belongs to which category?
b1

Please look at the following sequence next.
Which PBM binding z-score category applies to CCTACTGGGCCAAGGTCATTGAGCAGTCAAAGCA here?
b1

====

Test system: THRa homodimer (NR concentration 90 nM)
Assay: PBM binding z-score (relative to random genomic background probes); higher = stronger binding; sequences stand for … in GC…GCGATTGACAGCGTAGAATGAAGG
Decide using PBM binding z-score: a value greater than or equal to 2 is Fulfilled, a smaller one is Not fulfilled.

A selection of reference data follows.
Entry CTAACTAGGTCAAAGGACAGTGAAAGGCGACGTA : is its PBM binding z-score no less than 2?
Not fulfilled

Hi team, for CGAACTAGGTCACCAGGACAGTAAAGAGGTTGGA , is the recorded PBM binding z-score at or above 2?
Not fulfilled

Evaluate GCTGCTAGGTTAACTGATGGTCAGCTAAAGCTCG : PBM binding z-score at minimum 2?
Not fulfilled

Quick check, PBM binding z-score >= 2? CGAACTAGGTCACCAGGACAGTGCAGAGGTTGGA
Fulfilled

Tell me whether PBM binding z-score is at least 2 here: CATACTAGGTCAAAGGTCAAAGTCGAGCCAACCA
Fulfilled

***
Could you tell me if the measured PBM binding z-score of CGAACTAGGTCACCAGAACAGTGAAGAGGTTGGA reaches 2 or more?
Not fulfilled

Could you please find out whether CCAGAAAGGTGAAAGGTAACTCAGTCTGGTACGC has PBM binding z-score that meets 2 or exceeds it?
Not fulfilled

# check: PBM binding z-score of CTATGTAGGTTAAGCGGGTCATTCAGTTTGAAAG is greater than or equal to 2
Not fulfilled

Does ATCGAAAGGTCGAAGGTCAGTATACCCACCCGAA have a reported PBM binding z-score of at least 2?
Not fulfilled

Answer whether PBM binding z-score of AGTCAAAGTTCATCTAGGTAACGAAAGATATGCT is greater than or equal to 2.
Not fulfilled

====

Tested on: PPARg:RXRa IVT, anti-PPARg (NR concentration 270 nM, RXRa partner concentration 90 nM)
Assay: PBM binding z-score (relative to random genomic background probes); higher = stronger binding; sequences stand for … in GC…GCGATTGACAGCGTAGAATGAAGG
endpoint-label: PBM binding z-score
One number for each entry.

Provide reported PBM binding z-score for each item, in the same order as listed.
1. TCTCGGAGGACACGAAAGGTCTGAGCTCGACATC
2. TCGAGTAGGTTACGGGTGCATTCAGGGATGAAGA
3. TCGAGTAGGTTACGGGGGGATTCAGGGATGAAGA
4. ATATGTAGGTTACATCCGAGTCATTCAGGCTATG

1: -0.101; 2: 3.34; 3: 5.45; 4: 7.07

Each of the following entries comes with a recorded value; kindly state PBM binding z-score for each.
1. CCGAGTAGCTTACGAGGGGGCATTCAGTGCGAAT
2. CCTACTGGGCCAAGGTCATTGCTCAGTCAAAGCA
3. CGTCAAAGTTCAACTAAGTTAACGTAAAGCACGC
4. CGAAGTAGGTCACCAGGACAGTGAAGAGGTTGGA
5. CTATGTAGGTTAAGGGGCTCATTCAGTTTGAAAG
6. CGTCCAAGGTCAGAGAGGTCAGTGACTGCCGAGT

0.528
4.65
1.89
8.92
6.52
3.54

State the recorded PBM binding z-score for every item in the following list.
1. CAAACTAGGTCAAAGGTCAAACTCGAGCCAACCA
2. TTTAGTTGGTCAAAGGTCACACACTCGAAATGCG
3. CGTCCAAGGTCAATGCAAGGTCAGTGAAAGCATT

1: 9.06; 2: 7; 3: 4.28

====

System: PXR homodimer (NR concentration 270 nM)
Assay: PBM binding z-score (relative to random genomic background probes); higher = stronger binding; sequences stand for … in GC…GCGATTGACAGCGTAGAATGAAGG
Field: class. Source value: PBM binding z-score. Ranges: band 1 (below -0.2), band 2 (-0.2 to below 1), band 3 (1 or more)

// known answers, use as guide
GET /class?item= TCGAGTAGGTTACGGTGGCATTCAGGGATGAAGA
band 1

In plain terms, what class is ATATGTAGGTTAGGGTCATCCAGAAAGTAGGGAA ?
band 3

Category of TAGCCTCGGTCATTCAGGGGCCAGTATAGAAAGC , please.
band 1

Input TCATATAGGTAATAAAGGTGAAAGTCGGCATCTA ; output its category
band 2

Band of TCGAGTAGGTTACGGGGGCATGCAGGGATGAAGA ?
band 2

Entry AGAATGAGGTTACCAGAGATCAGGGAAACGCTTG belongs to which category?
band 2

Which class is correct for the following sequence? ATATATAGGTTAGGGTCATTCAGAAAGTAGGGAA
band 3

Looking at CGAACTAGGTCAAAGGACAGAGAAAGGCGACGTA , which class would you pick?
band 1

Which bin, given its PBM binding z-score, does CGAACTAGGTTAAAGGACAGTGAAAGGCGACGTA occupy?
band 2

Which class holds TCGAGTAGGTTACGGGGGCATTCATGGATGAAGA ?
band 3

Continue with the next sequence.
Which bin, given its PBM binding z-score, does CGTCAAAGTTCAAGCTAACGTAACAGAAAGCAGC occupy?
band 3

====

System: RARa:RXR (NR concentration 270 nM, RXRa partner concentration 90 nM)
Experiment: PBM binding z-score (relative to random genomic background probes); higher = stronger binding; sequences stand for … in GC…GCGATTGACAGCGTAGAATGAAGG
endpoint-label: PBM binding z-score
Numbers only.

Worked examples, 4 sequences total:
Record lookup: for RARa:RXR (NR concentration 270 nM, RXRa partner concentration 90 nM), what PBM binding z-score belongs to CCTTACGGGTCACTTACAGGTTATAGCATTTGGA ?
4.24

Request: PBM binding z-score, test system RARa:RXR (NR concentration 270 nM, RXRa partner concentration 90 nM), entry ATATGAAGGTTAGGGTCATTCAGAAAGTAGGGAA
5.28

Record lookup: for RARa:RXR (NR concentration 270 nM, RXRa partner concentration 90 nM), what PBM binding z-score belongs to CCGAGTAAGTTACGAGGGGGCATTCAGTGCGAAT ?
2.13

Short answer please: PBM binding z-score, RARa:RXR (NR concentration 270 nM, RXRa partner concentration 90 nM), entry CAAACTAGGTCACCGGGAGGTCAAAGTCCGCATG
7.76

Give one value of PBM binding z-score per listed sequence.
1. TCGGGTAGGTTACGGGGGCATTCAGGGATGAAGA
2. CGTCGGAGGACAGAAGGTCAGAGCTGTCCGCTTT
3. CCTACTGTGCCATTCAGAGGTCATTGATCATATG
4. CTATGTAGGGTAAGGGGGTCATTCAGTTTGAAAG
5. CGAACTAGGTCACCAGGACCGTGAAGAGGTTGGA
6. TCTGCTATGTCAACGATGGTCAGCTAATCTGCTA
7. CGAACTAGGTCACAGGACAGTGAAAGGCGACGTA
8. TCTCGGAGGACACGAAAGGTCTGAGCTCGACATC

4.12
1.84
4.4
5.58
2.08
-0.446
2.22
0.227

====

For each entry below, report its PBM binding z-score value.
System: PXR:RXRa (NR concentration 270 nM, RXRa partner concentration 90 nM)
Assay: PBM binding z-score (relative to random genomic background probes); higher = stronger binding; sequences stand for … in GC…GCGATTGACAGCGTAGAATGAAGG
Give bare numbers.

Use these answered entries as a reference point.
Reported PBM binding z-score, sequence GCTATTAGGTGAAAGGGCAACCGAATGATTCTCG : ____
1.48

Item under review: CCCGCTAGGTCATGGTCAGCTAATCTACAGTATG . Reported PBM binding z-score?
1.49

Suppose we examine the sequence CCTTACGGGTAACTCCAGGTTATAGCATCGGAGT ; what PBM binding z-score value has been reported?
0.705

Item under review: TCGAGTAGTTTACGGGGGCATTCAGGGATGAAGA . Reported PBM binding z-score?
2.74

Please give the measured PBM binding z-score for this sequence: CAAACTAGGTCACGAAAGGTCAAATTCGAATGAC
7.07

Consider the sequence shown here: CGAACCAGGTCAAAGGACAGTGAAAGGCGACGTA What is its recorded PBM binding z-score?
2.07

Dear colleague, could you please provide PBM binding z-score for the sequences listed below?
1. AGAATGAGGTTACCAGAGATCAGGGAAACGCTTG
2. ACTCGGAGGGCAAAGGTCAGAGCTACGCCAGTGA
3. AGAATGAGGTTACCAAAGATCAGTGAAACGCTTG
4. CGAACTAGGTCCCCAGGACAGTGAAGAGGTTGGA
5. CTATGTAGATTAAGGGGGTCATTCAGTTTGAAAG
6. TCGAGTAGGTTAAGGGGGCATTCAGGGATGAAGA

[1.95, 5.61, 1.56, -0.741, 5.56, 2.67]
